Values from PubChem BioAssay

As shown below, each of these molecules has a reported growth inhibition value.
- test-name: antimalarial activity against Dd2 strain (AID 2302);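 note: 0% = DMSO untreated growth and 100% = chloroquine plus artemisinin killed control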
- recorded-conditions: P. falciparum Dd2 in RBCs, LDH growth readout, 72 h; at 2 µM; hits give high values
The source made the active and inactive calls.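 Rule for the calls: active = growth inhibition above 50% at the single 2 µM test dose, taken to imply half-maximal potency below 2 µM; inactive = the rest.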
parameter-measured: growth inhibition

* O=C(Nc1ccc(CN2CCOCC2)cc1)c1ccc(-c2ccc(Cl)cc2)o1 | 11% (inactive)
* Cc1ccc(CN2CCCCC(NC(=O)c3cc4ccccc4s3)C2)cc1 (stereo not drawn) | 8% (inactive)
* O=C(Nc1ccccc1)Nc1ccc(-n2ccc(C(F)(F)F)n2)cc1 | 85% (active)

----------
As shown below, each of these molecules has a reported growth inhibition value.
- test-name: inhibition of 3D7 malaria parasite growth – strain 3D7 (AID 2306);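 note: 0% = DMSO wells and 100% = chloroquine plus artemisinin control wells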
- recorded-conditions: P. falciparum 3D7 erythrocytic growth, LDH absorbance, 72 h; at 2 µM; hits give high values
Calls of active or inactive are those of the source. The rule behind the calls is not given here.
parameter-measured: growth inhibition

• O=C(Nc1ccccc1Br)c1cn(-c2ccccc2)nc1-c1cccc([N+](=O)[O-])c1 = 92% (active)
• CCOC(=O)c1ccc(NC(=O)Nc2ccc(-c3ccc(-c4nc5c(C)cccc5[nH]4)s3)cc2)cc1 = 101% (active)
• C[C@@H](C(N)=O)N1CCCCC1c1ccc(OCc2cccc(F)c2)cc1 (stereo partly specified) = 84% (active)
• Cc1ccc(C=C2SC(=Nc3ccccc3)NC2=O)c(C)c1 = 93% (active)
• O=C(NCCCCN1CCC(c2c[nH]c3ccc(-c4ccccc4)cc23)CC1)c1ccc(-c2ccccc2)cc1 = 97% (active)
• COc1cc2c(cc1S(=O)(=O)c1ccc(NC(=O)Nc3ccc(F)cc3)cc1)CCN(C)CC2 = 99% (active)
